System: Rattus norvegicus
Test: Area under the curve was evaluated after 20 uM/kg of peroral administration
Format: ADME, organism-based
Conditions: in vivo, po

{"columns": ["mol", "unit text", "AUC"],
 "data": [
  ["COc1cc(Nc2ncc(-c3ccccc3N(C)C(=O)CN3CCOCC3)o2)ccc1-c1cnco1", "µM·h", 1.2]
]}

* * *

For reference, log10 IC50 measured on Inosine-5'-monophosphate dehydrogenase 2 (Homo sapiens, UniProt P12268):
measure: log10 IC50 (log10 of the value in nM)

{"columns": ["mol", "value"],
 "data": [
  ["COc1cc(Nc2ncc(-c3ccccc3)o2)ccc1-c1cnco1", 1.30],
  ["COc1cc(Nc2ncc(-c3ccccc3N(C)C(=O)Cn3cncn3)o2)ccc1-c1cnco1", 1.11],
  ["COc1ccc(-c2cnc(Nc3ccc(-c4cnco4)c(OC)c3)o2)cc1", 2.06],
  ["COc1cc(Nc2ncc(-c3ccccc3OC)o2)ccc1-c1cnco1", 1.36],
  ["CNCC(=O)N(C)c1ccccc1-c1cnc(Nc2ccc(-c3cnco3)c(OC)c2)o1", 1.34],
  ["COc1cc(Nc2ncc(-c3ccccc3N(C)C(=O)Cn3cccn3)o2)ccc1-c1cnco1", 1.04],
  ["COc1cc(Nc2ncc(-c3ccccc3N(C)C(=O)CN3CCN(C)CC3)o2)ccc1-c1cnco1", 1.23],
  ["COc1cc(Nc2nc(C)c(-c3ccccc3)o2)ccc1-c1cnco1", 1.43],
  ["COc1cc(Nc2ncc(-c3ccccc3N(C)C(C)=O)o2)ccc1-c1cnco1", 1.26],
  ["COc1cc(NC(=O)Nc2cccc(CNC(=O)O[C@H]3CCOC3)c2)ccc1-c1cnco1", 1.00],
  ["COc1cc(Nc2ncc(-c3ccc(C)cc3)o2)ccc1-c1cnco1", 1.93]
]}

* * *

Assay: Plasma clearance was evaluated after 10 uM/kg of intra arterial administration
Type: ADME, organism-based
Conditions: rat

{"columns": ["mol", "clearance"],
 "data": [
  ["COc1cc(Nc2ncc(-c3ccccc3N(C)C(=O)CN3CCOCC3)o2)ccc1-c1cnco1", "71 mL/min/kg"]
]}

* * *

Experiment: Bioavailability was evaluated after 20 uM/kg of peroral administration
Type: ADME, organism-based
Settings: rat, in vivo, po, read-out: Bioavailabiility
measure: bioavailability (%)

{"columns": ["mol", "unit text", "value"],
 "data": [
  ["COc1cc(Nc2ncc(-c3ccccc3N(C)C(=O)CN3CCOCC3)o2)ccc1-c1cnco1", "%", 25]
]}

From: ChEMBL document CHEMBL1136047
